System: ED cells (E. derm NBM-6, ATCC CCL-57)
MEASUREMENT_PROTOCOL: cell viability (ATP, CellTiter-Glo) relative to untreated control (fraction of control); higher = less cytotoxic
MEASUREMENT_SETUP: 2 µM; incubation time: 24h
TEST_READOUT: cell viability
Number only, please.

Record excerpt, results attached:
COMPOUND: Nc1nc(NC2CC2)c2ncn([C@H]3C=C[C@@H](CO)C3)c2n1 [abacavir]
cell viability: 1.02
//
COMPOUND: Nc1ccn([C@@H]2CS[C@H](CO)O2)c(=O)n1 [lamivudine]
cell viability: 1.03
//
COMPOUND: CC(C)(C)NC(=O)[C@@H]1C[C@@H]2CCCC[C@@H]2CN1C[C@@H](O)[C@H](Cc1ccccc1)NC(=O)[C@H](CC(N)=O)NC(=O)c1ccc2ccccc2n1 [saquinavir]
cell viability: 1
//
COMPOUND: O=C1Nc2ccc(Cl)cc2[C@@](C#CC2CC2)(C(F)(F)F)O1 [efavirenz]
cell viability: 0.989
//
COMPOUND: CC(C)c1nc(CN(C)C(=O)N[C@H](C(=O)N[C@@H](Cc2ccccc2)C[C@H](O)[C@H](Cc2ccccc2)NC(=O)OCc2cncs2)C(C)C)cs1 [ritonavir]
cell viability: 0.991

Q: Report cell viability, nothing else, for this compound: CC(C)CN(C[C@@H](OP(=O)(O)O)[C@H](Cc1ccccc1)NC(=O)O[C@H]1CCOC1)S(=O)(=O)c1ccc(N)cc1 [fosamprenavir]
Result: 1

Q: Report cell viability, nothing else, for this compound: O=C(NCc1c(F)cc(F)cc1F)c1cn2c(c(O)c1=O)C(=O)N1[C@H]3CC[C@H](C3)O[C@@H]1C2 [bictegravir]
Result: 1.01

Q: Report cell viability, nothing else, for this compound: Cc1ccnc2c1NC(=O)c1cccnc1N2C1CC1 [nevirapine]
Result: 1.06

Data provenance: the supplement of paper PMC11699113
